Test system: K4 kissing-loop RNA reporter;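 also: bound reporter read as fluorescence of individual clusters on recovered sequencing chips by microscopy, with normalized cluster intensities fitted with a binding model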
Test Method Notes: apparent KD of K4 kissing-loop reporter; higher = weaker reporter binding
Condition Info: Eterna round: R107; input ligand: tryptophan 2.4 mM
Endpoint: apparent KD of K4 kissing-loop reporter (nM)
Express your answer in nM, writing the number without its unit.

Identify measured apparent KD of K4 kissing-loop reporter associated with AGGCGGCAUAAUUGACUGAAAAGAAAUUAACGAGGACCGGUACGGCCGCCACUCGAACACCAGUGAUGUUGGUAUGGGAUAAUUU [Exclusion Tryptophan A GF 18]
47

# return recorded apparent KD of K4 kissing-loop reporter for entry ACCACCUGUCUGGAUACCAGUCUUCGAGUGAUGUUGGAAGUUAGCCGGUUCUAUUACCUAGACCCUUGGCAGCCAGGAAUUAUAG [theeternabot_exclusion_KL_Theo_B_17]
872

Provide only the value of recorded apparent KD of K4 kissing-loop reporter for UAUAGAGUGACGGCCGCCACUAUUGUGAUUUAAUUGUUUGAGUGAUGUUUUGAUGUUUGAUUUUGUAGGACCGGGUUAUAUGUUA [zdzzmullin]
788

Quick one: give measured apparent KD of K4 kissing-loop reporter for UUUAAAUAUAGUGAUGUUAUAUAACAAUGACGAGGACCGGUACGGCCGCCACUCGAGAGAGAUAAUGAUAAAAUAAAUAAUUUUC [AstrosSSTrypA#1]
374

Please look at this sequence and report its apparent KD of K4 kissing-loop reporter: UCAUCAUGAUGGUAGUAACCGCAUUGGGAGCGAGGACCGGUACGGCCGCCACUCGAAAUGUACAUAGCAGUAGUGAUGUUGCUGC [theeternabot_sameState_KL_Trp_A_47]
115
